Reference source for all entries: ChEMBL document CHEMBL4017513

- test_system: Protein-glutamine gamma-glutamyltransferase (Homo sapiens) (UniProt P21980)
- method_summary: Irreversible inhibition of human TG2 using AL5 as substrate by colorimetric assay
reported_endpoint: Kinact
Please answer using the number first and the unit second.

Past entries and their recorded results:
>>> measured("C=CC(=O)NCCCC[C@H](NC(=O)OCc1ccccc1)C(=O)N1CCN(C(=O)c2ccccn2)CC1")
"2.93 min⁻¹"
>>> measured("C=CC(=O)NCCCC[C@H](NC(=O)OCc1ccccc1)C(=O)NCCOCCOCCNS(=O)(=O)c1cccc2c(N(C)C)cccc12")
"2.6 min⁻¹"
>>> measured("C=CC(=O)NCCCC[C@H](NC(=O)OCc1ccccc1)C(=O)N1CCN(S(=O)(=O)c2cccs2)CC1")
"1.48 min⁻¹"

// switching to the query compound
In plain terms, C=CC(=O)NCCCC[C@H](NC(=O)OCc1ccccc1)C(=O)N1CCN(S(=O)(=O)c2ccc3ccccc3c2)CC1 has a documented Kinact of 0.38 min⁻¹

* * *

Entries annotated with measured Kinact
- test_system: Protein-glutamine gamma-glutamyltransferase (Homo sapiens) (UniProt P21980)
- method_summary: Irreversible inhibition of human TG2 using AL5 as substrate by colorimetric assay
Peptide text beside a SMILES is read from it. * marks the point of attachment. Cbz = O=C(OCc1ccccc1)*; Acryloyl = C=CC(=O)*
Give the value in min⁻¹ but do not write min⁻¹ after it.

Worked examples, 5 compounds total:
>>> measured("C=CC(=O)NCCCC[C@H](NC(=O)OCc1ccccc1)C(=O)N1CCN(S(=O)(=O)c2ccccc2)CC1")
0.47
>>> measured("C=CC(=O)NCCCC[C@H](NC(=O)OCc1ccccc1)C(=O)N1CCOCC1")
1.47
>>> measured("C=CC(=O)NCCCC[C@H](NC(=O)OCc1ccccc1)C(=O)N1CCN(S(C)(=O)=O)CC1")
0.5
>>> measured("C=CC(=O)NCCCC[C@H](NC(=O)OCc1ccccc1)C(=O)N1CCN(C(=O)c2ccncc2)CC1")
1.43
>>> measured("C=CC(=O)NCCCC[C@H](NC(=O)OCc1ccccc1)C(=O)N1CCN(c2ccccc2Cl)CC1")
0.97

Summary: C=CC(=O)NCCCC[C@H](NC(=O)OCc1ccccc1)C(=O)NCC(=O)O (Cbz-Lys(Acryloyl)-Gly-OH) , Protein-glutamine gamma-glutamyltransferase (Homo sapiens) (UniProt P21980), Kinact = 1.26

* * *

- test_system: Protein-glutamine gamma-glutamyltransferase (Homo sapiens, UniProt P21980)
- method_summary: Irreversible inhibition of human TG2 using AL5 as substrate by colorimetric assay
Peptide text beside a SMILES is read from it. * marks the point of attachment. Cbz = O=C(OCc1ccccc1)*; Acryloyl = C=CC(=O)*
reported_endpoint: Ki (µM)
Just the number please, in µM, no unit attached.

Consider the reported Ki for these molecules:
>>> measured("C=CC(=O)NCCCC[C@H](NC(=O)OCc1ccccc1)C(=O)N1CCN(S(=O)(=O)c2ccccc2)CC1")
8.8
>>> measured("C=CC(=O)NCCCC[C@H](NC(=O)OCc1ccccc1)C(=O)O")
60.3
>>> measured("C=CC(=O)NCCCC[C@H](NC(=O)OCc1ccccc1)C(=O)N1CCN(C(=O)c2cccnc2)CC1")
23.4
>>> measured("C=CC(=O)NCCCC[C@H](NC(=O)OCc1ccccc1)C(=O)NCCOCCOCCNS(=O)(=O)c1cccc2c(N(C)C)cccc12")
33.9
>>> measured("C=CC(=O)NCCCC[C@H](NC(=O)OCc1ccccc1)C(=O)N1CCN(c2ccccc2Cl)CC1")
17.4
>>> measured("C=CC(=O)NCCCC[C@H](NC(=O)OCc1ccccc1)C(=O)N1CCN(S(=O)(=O)c2cccs2)CC1")
40.1
>>> measured("C=CC(=O)NCCCC[C@H](NC(=O)OCc1ccccc1)C(=O)NCC(=O)O (Cbz-Lys(Acryloyl)-Gly-OH)")
48.1

# ---- query molecule ----
Kindly note the recorded Ki for C=CC(=O)NCCCC[C@H](NC(=O)OCc1ccccc1)C(=O)N1CCN(C(=O)Cc2ccccc2)CC1 , which is 20

* * *

- test_system: Protein-glutamine gamma-glutamyltransferase (Homo sapiens) (UniProt P21980)
- method_summary: Ratio of kinact to Ki for human TG2 by double reciprocal plot method
reported_endpoint: Ratio (×10³ /M/min)
The figure you give is taken to be in ×10³ /M/min; do not add the unit.

Guide cases for Ratio, answers given:
>>> measured("C=CC(=O)NCCCC[C@H](NC(=O)OCc1ccccc1)C(=O)NCCNS(=O)(=O)c1cccc2c(N(C)C)cccc12")
61.5
>>> measured("C=CC(=O)NCCCC[C@H](NC(=O)OCc1ccccc1)C(=O)NCCCNS(=O)(=O)c1cccc2c(N(C)C)cccc12")
27.6
>>> measured("C=CC(=O)NCCCC[C@H](NC(=O)OCc1ccccc1)C(=O)NCCCCNS(=O)(=O)c1cccc2c(N(C)C)cccc12")
80.8
>>> measured("C=CC(=O)NCCCC[C@H](NC(=O)OCc1ccccc1)C(N)=O")
30.7

// Ratio (Protein-glutamine gamma-glutamyltransferase (Homo sapiens) (UniProt P21980)) for C=CC(=O)NCCC[C@H](NC(=O)OCc1ccccc1)C(=O)N1CCN(S(=O)(=O)c2cccc3c(N(C)C)cccc23)CC1 = 24.7

* * *

- test_system: Protein-glutamine gamma-glutamyltransferase (Homo sapiens, UniProt P21980)
- method_summary: Irreversible inhibition of human TG2 using AL5 as substrate by colorimetric assay
reported_endpoint: pKi
Interpret pKi as the negative base-10 log of the concentration measured in mol/L.

As a guide, the following entries are already answered.
>>> measured("C=CC(=O)NCCCC[C@H](NC(=O)OCc1ccccc1)C(=O)N1CCN(S(=O)(=O)C2CCCCC2)CC1")
4.96
>>> measured("C=CC(=O)NCCCC[C@H](NC(=O)OCc1ccccc1)C(=O)N1CCN(C(C)=O)CC1")
4.28
>>> measured("C=CC(=O)NCCCC[C@H](NC(=O)OCc1ccccc1)C(=O)N1CCN(S(=O)(=O)c2ccc3ccccc3c2)CC1")
5.17

// C=CC(=O)NCCCC[C@H](NC(=O)OCc1ccccc1)C(=O)N1CCN(C(=O)c2cccc3ccccc23)CC1 : pKi value = 5.05

For reference, reported pKi for C=CC(=O)NCCCC[C@H](NC(=O)OCc1ccccc1)C(=O)N1CCN(C(=O)c2cc3ccc(O)cc3oc2=O)CC1 stands at 4.95

The compound C=CC(=O)NCCCC[C@H](NC(=O)OCc1ccccc1)C(=O)N1CCN(S(C)(=O)=O)CC1 showed pKi equal to 5.19

Entry C=CC(=O)NCCCC[C@H](NC(=O)OCc1ccccc1)C(=O)N1CCN(C(=O)c2ccccn2)CC1 ; pKi = 4.49

The measured pKi associated with C=CC(=O)NCCCC[C@H](NC(=O)OCc1ccccc1)C(=O)N1CCN(S(=O)(=O)c2cccc3ccccc23)CC1 reads 4.98

* * *

- test_system: Protein-glutamine gamma-glutamyltransferase (Homo sapiens)
- method_summary: Irreversible inhibition of human TG2 using AL5 as substrate by double reciprocal plot method
The entries below are paired with their reported Kinact.
Could you write the number and then its unit?

Consider the worked cases shown below.
>>> measured("C=CC(=O)NCCC[C@H](NC(=O)OCc1ccccc1)C(=O)N1CCN(S(=O)(=O)c2cccc3c(N(C)C)cccc23)CC1")
"1.18 min⁻¹"
>>> measured("C=CC(=O)NCCCC[C@H](NC(=O)OCc1ccccc1)C(=O)NCCNS(=O)(=O)c1cccc2c(N(C)C)cccc12")
"1.45 min⁻¹"

Entry C=CC(=O)NCCCC[C@H](NC(=O)OCc1ccccc1)C(=O)NCCCNS(=O)(=O)c1cccc2c(N(C)C)cccc12 ; assay system Protein-glutamine gamma-glutamyltransferase (Homo sapiens); Kinact recorded at 0.85 min⁻¹

Summary: C=CC(=O)NCCCC[C@H](NC(=O)OCc1ccccc1)C(N)=O , Protein-glutamine gamma-glutamyltransferase (Homo sapiens), Kinact = 1.08 min⁻¹

Let me check: C=CC(=O)NCCCC[C@H](NC(=O)OCc1ccccc1)C(=O)NCCCCNS(=O)(=O)c1cccc2c(N(C)C)cccc12 , system Protein-glutamine gamma-glutamyltransferase (Homo sapiens), measured Kinact is 2.19 min⁻¹

* * *

List of Kinact values.
- test_system: Protein-glutamine gamma-glutamyltransferase (Homo sapiens)
- Sequence (whole entry): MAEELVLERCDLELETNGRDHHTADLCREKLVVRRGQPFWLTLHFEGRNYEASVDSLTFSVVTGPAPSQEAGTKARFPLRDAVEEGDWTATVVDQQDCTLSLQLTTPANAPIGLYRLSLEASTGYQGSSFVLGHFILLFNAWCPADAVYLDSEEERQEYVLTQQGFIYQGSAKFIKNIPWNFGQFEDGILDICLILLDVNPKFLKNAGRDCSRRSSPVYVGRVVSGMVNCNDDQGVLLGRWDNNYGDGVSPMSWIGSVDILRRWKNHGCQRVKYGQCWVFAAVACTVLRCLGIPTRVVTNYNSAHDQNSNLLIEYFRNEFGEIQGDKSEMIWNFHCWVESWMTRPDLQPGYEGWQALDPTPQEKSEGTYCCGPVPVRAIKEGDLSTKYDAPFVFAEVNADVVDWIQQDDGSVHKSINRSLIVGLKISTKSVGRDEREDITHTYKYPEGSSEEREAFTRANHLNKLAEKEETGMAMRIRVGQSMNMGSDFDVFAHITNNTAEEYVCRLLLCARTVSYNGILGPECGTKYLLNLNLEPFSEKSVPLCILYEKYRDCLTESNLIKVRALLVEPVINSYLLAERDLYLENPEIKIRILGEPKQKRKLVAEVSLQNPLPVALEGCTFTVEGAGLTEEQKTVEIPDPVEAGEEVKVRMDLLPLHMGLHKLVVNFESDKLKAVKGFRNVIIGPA
- method_summary: Irreversible inhibition of human TG2 using AL5 as substrate by colorimetric assay
Peptide text beside a SMILES is read from it. * marks the point of attachment. Cbz = O=C(OCc1ccccc1)*; Acryloyl = C=CC(=O)*
Give your result in min⁻¹ as a bare value.

For orientation, consider the following solved cases.
>>> measured("C=CC(=O)NCCCC[C@H](NC(=O)OCc1ccccc1)C(=O)N1CCN(C(=O)c2ccc3ccccc3c2)CC1")
1.21
>>> measured("C=CC(=O)NCCCC[C@H](NC(=O)OCc1ccccc1)C(=O)N1CCN(C(C)=O)CC1")
2.06
>>> measured("C=CC(=O)NCCCC[C@H](NC(=O)OCc1ccccc1)C(=O)NCC(=O)OC (Cbz-Lys(Acryloyl)-Gly-OMe)")
1.45

Entry C=CC(=O)NCCCC[C@H](NC(=O)OCc1ccccc1)C(=O)N1CCN(S(=O)(=O)C2CCCCC2)CC1 , tested on Protein-glutamine gamma-glutamyltransferase (Homo sapiens), has a reported Kinact of 0.69
